Test system: HCI-012 (organoid from a breast cancer xenograft)
Assay: CTG-3D luminescence at 96 h relative to day-0 seeding control (ratio to day 0); higher = more growth / less cytotoxicity; PDxO 3D drug screen, 96 h, CTG-3D normalised to day-0 seeding control.
Conditions: 100 µM; days in culture: 162
MEASUREMENT_TYPE: CTG-3D luminescence at 96 h
Reply: number alone, nothing else.

Worked set:
| COMPOUND | MEASURED_TARGET | ASSAY_RESULT |
| --- | --- | --- |
| CC[C@H](NC(=O)[C@H](C)NC)C(=O)N1C[C@@H](O)C[C@H]1Cc1c(-c2[nH]c3cc(F)ccc3c2C[C@@H]2C[C@H](O)CN2C(=O)[C@H](CC)NC(=O)[C@H](C)NC)[nH]c2cc(F)ccc12 | HCI-012 | 0.00568 |
| CN(Cc1cnc2nc(N)nc(N)c2n1)c1ccc(C(=O)N[C@@H](CCC(=O)O)C(=O)O)cc1 [methotrexate] | HCI-012 | 1.06 |
| NC(=O)c1cccc2cn(-c3ccc([C@@H]4CCCNC4)cc3)nc12 | HCI-012 | -0.00213 |
| C[C@@H]1COCCN1c1cc(C2([S@](C)(=N)=O)CC2)nc(-c2cc[nH]c3nccc2-3)n1 | HCI-012 | 0.451 |

Turning now to a further compound:
Inquiry: Return reported CTG-3D luminescence at 96 h. Input compound: `O=C(c1ccc(F)c(F)c1Nc1ccc(I)cc1F)N1CC(O)([C@@H]2CCCCN2)C1`
Reply text: 0.00171
